- ASSAYED_TARGET: PD-1/PD-L1 (Homo sapiens (Human))
- EXPERIMENT_DESCRIPTION: Homogeneous time-resolved fluorescence (HTRF) binding assay
- SETUP_CONDITIONS: CisBio kit, read-out: IC50 of compounds binding to PD-1/PD-L1
Please provide measured pIC50 for the entries that follow.
Scale: pIC50 equals -log10([C]), with [C] in mol/L.

Task: Which pIC50 reading was recorded for the compound [2H]C([2H])([2H])Oc1cc(/C=C/c2cccc(-c3ccccc3)c2C)c(Cl)cc1CN1CCCC[C@H]1C(=O)O [Compound 59] ?
Result: 8.05

Task: Which pIC50 reading was recorded for the compound COc1cc(/C(Br)=C/c2cccc(-c3ccccc3)c2C)c(C(F)(F)F)cc1CNCCO [Compound 66] ?
Result: 7.38

Task: Which pIC50 reading was recorded for the compound COc1cc(/C=C/c2cccc(-c3ccccc3)c2C#N)c(C(F)(F)F)cc1CN1CCCC[C@H]1C(=O)O [Compound 7] ?
Result: 8.72

Task: Which pIC50 reading was recorded for the compound Cc1cc(CN2CCOC[C@H]2C(=O)O)c(C)cc1/C=C/c1cccc(-c2ccccc2)c1C#N [Compound 11] ?
Result: 8.00

Task: Which pIC50 reading was recorded for the compound COc1cc(/C(Br)=C/c2cccc(-c3ccccc3)c2C)c(C(F)(F)F)cc1CN1CCCC[C@H]1C(=O)O [Compound 67] ?
Result: 7.89

Task: Which pIC50 reading was recorded for the compound Cc1c(/C=C/c2ccc(CN3CCCC[C@H]3C(=O)O)cc2Cl)cccc1-c1ccccc1 [Compound 3] ?
Result: 7.06

====

- ASSAYED_TARGET: PD-1/PD-L1 (Homo sapiens (Human), UniProt Q9NZQ7)
- Sequence (Q9NZQ7 19-238): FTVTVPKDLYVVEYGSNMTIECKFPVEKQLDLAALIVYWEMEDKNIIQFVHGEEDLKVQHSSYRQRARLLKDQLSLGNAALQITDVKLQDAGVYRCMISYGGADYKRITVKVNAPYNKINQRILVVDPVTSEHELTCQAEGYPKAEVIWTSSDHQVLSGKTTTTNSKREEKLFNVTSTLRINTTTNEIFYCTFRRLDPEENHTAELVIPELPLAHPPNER
- EXPERIMENT_DESCRIPTION: Homogeneous time-resolved fluorescence (HTRF) binding assay
- SETUP_CONDITIONS: CisBio kit, read-out: IC50 of compounds binding to PD-1/PD-L1
# label = label 1 if IC50 < 20 nM else label 0

Task: Check if IC50 falls below 20 nM for `[2H]C([2H])([2H])OCc1cc(/C=C/c2cccc(-c3ccccc3)c2C#N)c(C(F)(F)F)cc1CN1CCOC[C@H]1C(=O)O` .
Result: label 0

Task: Check if IC50 falls below 20 nM for `Cc1c(/C=C/c2cc(OCc3cncc(I)c3)c(CN3CCCC[C@H]3C(=O)O)cc2C(F)(F)F)cccc1-c1ccccc1` .
Result: label 1

Task: Check if IC50 falls below 20 nM for `[2H]C([2H])([2H])c1c(/C=C/c2cc(CN[C@@](C)(CO)C(=O)O)ccc2C(F)(F)F)cccc1-c1ccccc1` .
Result: label 0

Task: Check if IC50 falls below 20 nM for `Cc1cc(CN2CCOC[C@H]2C(=O)O)c(OCCCCC#N)cc1/C=C/c1cccc(-c2ccccc2)c1C#N` .
Result: label 1

Task: Check if IC50 falls below 20 nM for `Cc1ccc(OCCCCC#N)c(CN2CCCC[C@H]2C(=O)O)c1/C=C/c1cccc(-c2ccccc2)c1C#N` .
Result: label 0

Task: Check if IC50 falls below 20 nM for `Cc1cc(CNCC(=O)O)c(OCCCCC#N)cc1/C=C/c1cccc(-c2ccccc2)c1C#N` .
Result: label 1

Task: Check if IC50 falls below 20 nM for `Cc1cc(CN2CCCC[C@H]2C(=O)O)c(OCCCF)cc1/C=C/c1cccc(-c2ccccc2)c1C` .
Result: label 1

Task: Check if IC50 falls below 20 nM for `Cc1cc(OCCCCC#N)c(CN2CCOC[C@H]2C(=O)O)cc1/C=C/c1cccc(-c2ccccc2)c1C#N` .
Result: label 0

Task: Check if IC50 falls below 20 nM for `COCc1cc(/C=C/c2cccc(-c3ccccc3)c2C#N)c(C(F)(F)F)cc1CN1CCCC[C@H]1C(=O)O` .
Result: label 1

Task: Check if IC50 falls below 20 nM for `N#CCOc1cc(/C=C/c2cccc(-c3ccccc3)c2C#N)c(CN2CCCC[C@H]2C(=O)O)cc1Cl` .
Result: label 0

Task: Check if IC50 falls below 20 nM for `Cc1c(/C=C/c2cc(OCc3ccnc(I)c3)c(CN3CCCC[C@H]3C(=O)O)cc2C(F)(F)F)cccc1-c1ccccc1` .
Result: label 1

Task: Check if IC50 falls below 20 nM for `Cc1c(/C=C/c2cc(OCc3cc(I)ccn3)c(CN3CCCC[C@H]3C(=O)O)cc2C(F)(F)F)cccc1-c1ccccc1` .
Result: label 1

Task: Check if IC50 falls below 20 nM for `Cc1cc(OCCO)c(CN2CCOC[C@H]2C(=O)O)cc1/C=C/c1cccc(-c2ccccc2)c1C#N` .
Result: label 0

Task: Check if IC50 falls below 20 nM for `Cc1c(/C=C/c2cc(OCc3ccc(I)cc3)c(CN3CCCC[C@H]3C(=O)O)cc2C(F)(F)F)cccc1-c1ccccc1` .
Result: label 0

Task: Check if IC50 falls below 20 nM for `COCCOc1cc(/C=C/c2cccc(-c3ccccc3)c2C#N)c(CN2CCCC[C@H]2C(=O)O)cc1Cl` .
Result: label 0

Task: Check if IC50 falls below 20 nM for `N#Cc1c(/C=C/c2ccc(CN3CCCC[C@H]3C(=O)O)cc2C(F)(F)F)cccc1-c1ccccc1` .
Result: label 1

Task: Check if IC50 falls below 20 nM for `COCCOc1cc(/C=C/c2cccc(-c3ccccc3)c2C#N)c(C)cc1CN1CCNC[C@H]1C(=O)O` .
Result: label 0

Task: Check if IC50 falls below 20 nM for `Cc1cc(/C=C/c2cccc(-c3ccccc3)c2C#N)c(Cl)cc1CN1CCN(C(N)=O)C[C@H]1C(=O)O` .
Result: label 0

Task: Check if IC50 falls below 20 nM for `Cc1cc(/C=C/c2cccc(-c3ccccc3)c2C#N)c(Cl)cc1CNCC(=O)O` .
Result: label 1

Task: Check if IC50 falls below 20 nM for `COc1cc(/C=C/c2cccc(-c3ccccc3)c2C)c(C)cc1CN1CCCC[C@H]1C(=O)O` .
Result: label 1

Task: Check if IC50 falls below 20 nM for `Cc1cc(/C=C/c2cccc(-c3ccccc3)c2C#N)c(Cl)cc1CN1CCNC[C@H]1C(=O)O` .
Result: label 0

Task: Check if IC50 falls below 20 nM for `[2H]C([2H])([2H])Oc1cc(/C=C/c2cccc(-c3ccccc3)c2C)c(C(F)(F)F)cc1CN1CCCC[C@H]1C(=O)O` .
Result: label 1

Task: Check if IC50 falls below 20 nM for `COc1cc(/C=C/c2cccc(-c3ccccc3)c2CF)c(C(F)(F)F)cc1CN1CCCC[C@H]1C(=O)O` .
Result: label 1

Task: Check if IC50 falls below 20 nM for `COCCOc1cc(C)c(/C=C/c2cccc(-c3ccccc3)c2C#N)cc1CN1CCCC[C@H]1C(=O)O` .
Result: label 0

Task: Check if IC50 falls below 20 nM for `Cc1cc(CN2CCCC[C@H]2C(=O)O)c(OCCO)cc1/C=C/c1cccc(-c2ccccc2)c1C#N` .
Result: label 1

Task: Check if IC50 falls below 20 nM for `Cc1cc(/C=C/c2cccc(-c3ccccc3)c2C)c(Cl)cc1CN1CCOC[C@H]1C(=O)O` .
Result: label 1

Task: Check if IC50 falls below 20 nM for `Cc1cc(OCCCCC#N)c(CN2CCCC[C@H]2C(=O)O)cc1/C=C/c1cccc(-c2ccccc2)c1C#N` .
Result: label 0

Task: Check if IC50 falls below 20 nM for `Cc1c(/C=C/c2cc(OCCCCF)c(CN3CCCC[C@H]3C(=O)O)cc2C(F)(F)F)cccc1-c1ccccc1` .
Result: label 1

Task: Check if IC50 falls below 20 nM for `COc1cc(CN2CCCC[C@H]2C(=O)O)c(OC)cc1/C=C/c1cccc(-c2ccccc2)c1C` .
Result: label 0

====

- EXPERIMENT_DESCRIPTION: Pharmacokinetic experiment in mice
- Assay type: in vivo
- SETUP_CONDITIONS: mouse, plasma; CD1 male mice; intravenous 2 mg/kg, oral 10 mg/kg by gavage (route of value not stated)
MEASURED_PROPERTY: Cmax (ng/mL)
Please give a number only; it is taken to be in ng/mL.

Task: Which Cmax reading was recorded for the compound Cc1cc(/C=C/c2cccc(-c3ccccc3)c2C#N)c(Cl)cc1CN1CCCC[C@H]1C(=O)O [drawing 205] ?
Result: 2130

Task: Which Cmax reading was recorded for the compound Cc1cc(/C=C/c2nccc(-c3ccccc3)c2C#N)c(Cl)cc1CN1CCCC[C@H]1C(=O)O [reference compound] ?
Result: 1260

Task: Which Cmax reading was recorded for the compound COc1cc(/C=C/c2nccc(-c3ccccc3)c2C)c(C(F)(F)F)cc1CN1CCCC[C@H]1C(=O)O [reference compound] ?
Result: 673

Task: Which Cmax reading was recorded for the compound COc1cc(/C=C/c2nccc(-c3ccccc3)c2C#N)c(C(F)(F)F)cc1CN1CCCC[C@H]1C(=O)O [reference compound] ?
Result: 254

Task: Which Cmax reading was recorded for the compound COc1cc(/C=C/c2cccc(-c3ccccc3)c2C#N)c(C(F)(F)F)cc1CN1CCCC[C@H]1C(=O)O [drawing 203] ?
Result: 1400

Task: Which Cmax reading was recorded for the compound COc1cc(/C=C/c2cccc(-c3ccccc3)c2C)c(C(F)(F)F)cc1CN1CCCC[C@H]1C(=O)O [drawing 201] ?
Result: 1870
